This collection of values is drawn from patent US20240067748A1.

The following binders are listed with their measured KD (monkey)/KD (human) values.
STUDY TARGET: T1, monkey Trop2 protein (Sino Biological, #90893-C08H) (monkey, UniProt A0A2K5UE71 27-274)
T1 construct: bought protein; also called monkey Trop2 protein antigen (His tag)
T1 sequence: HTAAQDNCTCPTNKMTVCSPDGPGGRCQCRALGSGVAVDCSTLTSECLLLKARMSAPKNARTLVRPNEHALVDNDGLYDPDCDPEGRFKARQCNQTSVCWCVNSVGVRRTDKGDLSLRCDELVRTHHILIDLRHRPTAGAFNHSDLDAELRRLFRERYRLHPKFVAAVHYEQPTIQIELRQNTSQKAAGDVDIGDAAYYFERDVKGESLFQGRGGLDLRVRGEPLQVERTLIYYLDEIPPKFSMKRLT
PROCEDURE TEXT: BLI, Octet RED96; ratio against KD for human Trop2 protein
Lab note: jot down the number only; don't add units.

[
  {
    "BINDER": "PR001143 (antibody, human IgG1, kappa, V domains shown, fully human IgG1/kappa; also called antibody No. (10)) VH: QVQLVESGGGVVQPGRSLRVSCAASGFIFSTYGMHWVRQAPGKGLEWVAVIWYDGSNEDYVDSVKGRFTISRDNSKNTLYLQMNSLRGEDTAVYYCARGGYNSGWWAFDVWGQGTLVTVSS VL: DIQMTQSPSSLSASVGDRVTITCRASQGISHFLAWYQQKPGKVPKLLIYAASTLQSGVPSRFSGSGSGTDFTLTISSLQPEDVATYYCQKFNSAPLTFGGGTKVEIKR",
    "KD (monkey)/KD (human)": 1.78
  }
]

Inquiry: Quick check: KD (monkey)/KD (human) of PR001152 (antibody, human IgG1, kappa, V domains shown, fully human IgG1/kappa; also called antibody No. (15)) VH: QVQLVESGGAVVQPGRSLRLSCAASGFTFSHYGMHWVRQAPGKGLEWVAVIWYDGIKSYYVESVKGRFTISRDNSKNTLYLQMDRLRAEDTAVYYCARDGGFGESNYYGLDVWGQGTTVTVSS VL: DIQLTQSPSFLSASVGDRVTITCRASQGINSYLGWYQRKPGKAPKLLIYIASTLQSGVPSRFSGSGSGTEFTLTISSLQPEDFATYYCQQLNSYPYTFGQGTKLEIKR ?
Reply text: 7.57
